Data provenance is paper PMC6421850.

- Test system: MDA-MB-231 (triple-negative breast cancer)
- assay_protocol: Antiproliferative activity, SRB assay, MDA-MB-231
- Format: cell-based, human
- experimental_parameters: Homo sapiens, MDA-MB-231, read-out: IC50 MDA-MB-231
measured_attribute: pIC50
Please treat pIC50 as minus the base-10 logarithm of the molar concentration.

INSERT INTO measurements (compound, measured_attribute, assay_result) VALUES
  ('CC(=O)O[C@H]1C(=O)[C@@]2(C)[C@H]([C@H](OC(=O)c3ccccc3)[C@]3(O)C[C@H](OC(=O)[C@H](O)[C@@H](NC(=O)c4ccccc4)c4ccccc4)C(C)=C1C3(C)C)[C@]1(OC(C)=O)CO[C@@H]1C[C@@H]2O [Paclitaxel, reference compound]', 'pIC50', 8.08);

Report pIC50 for C=CC(=C)CC[C@]1(C)[C@H]2C[C@@H](OC(=O)C(C)CC)C=C3[C@H](OC(C)=O)O[C@H](OC(C)=O)[C@@]32[C@H](O)C[C@@H]1C (some centres unmarked) please.
6.40
